assay: Pharmacokinetics in beagles, single-dose regimen of TRQI (i.v.) or TRQC (oral), plasma LC-MS/MS; assay type: in vivo, beagle; conditions: female, beagle, dog, plasma, iv, 0.5 mL/kg, single TRQI 0.5 mL/kg; beagle No 5; read-out: AUC0–24 h
Measured AUC(0-t), listed per entry for reference.
READOUT: AUC(0-t)

compound="C[C@H](CCC(=O)O)[C@H]1CC[C@H]2[C@@H]3[C@@H](O)C[C@@H]4C[C@H](O)CC[C@]4(C)[C@H]3CC[C@]12C [Ursodeoxycholic acid, ursodeoxycholic acid]" measured_value="1160 ng·h/mL"
compound="C[C@H](CCC(=O)O)[C@H]1CC[C@H]2[C@@H]3[C@H](O)C[C@@H]4C[C@H](O)CC[C@]4(C)[C@H]3CC[C@]12C [Chenodeoxycholic acid, chenodeoxycholic acid]" measured_value="137 ng·h/mL"
compound="O=C(/C=C/c1ccc(O)c(O)c1)O[C@@H]1C[C@](O)(C(=O)O)C[C@@H](O)[C@H]1O [Chlorogenic acid, chlorogenic acid]" measured_value="15.2 ng·h/mL"
compound="O=C(O)[C@H]1O[C@@H](Oc2cc3oc(-c4ccccc4)cc(=O)c3c(O)c2O)[C@H](O)[C@@H](O)[C@@H]1O [Baicalin, baicalin]" measured_value="1.98 ng·h/mL"
